Values compiled from patent US20200397796A1.

Experiment: GLP 28-day repeat oral dose toxicity and toxicokinetics, mouse
Settings: male, mouse, in vivo, po, 10 mg/kg/day
QUANTITY_NAME: Cmax (ng/mL)
Please respond with the number in ng/mL and leave the unit unwritten.

What value of Cmax has been recorded for this entry: N#Cc1cnc(Nc2cc(NCC3CNCCO3)c(C(F)(F)F)cn2)cn1 (stereo not shown)
903

* * *

Assay: Phase 1 clinical trial, SRA737 monotherapy dose escalation
Format: in vivo, human
Settings: human, in vivo, 20 mg, Cmax
Method: A Phase 1 clinical trial was conducted in ‘all comers,’ i.e. no genetic selection was performed, to establish safety, tolerability and pharmacokinetics (“Dose Escalation Phase”). […] Cmin was calculated at 1000 mg QD (411 ng/mL) and exceeded that determined in preclinical models to be effective. […]
QUANTITY_NAME: Cmax
Express the reported value numerically, then name its unit.

What value of Cmax has been recorded for this entry: N#Cc1cnc(Nc2cc(NCC3CNCCO3)c(C(F)(F)F)cn2)cn1 (stereo not shown)
43 ng/mL

* * *

Assay: Phase 1 clinical trial, SRA737 in combination with gemcitabine dose escalation
Type: in vivo, human
Conditions: human, plasma, oral, 600 mg; Day −7; mean, n = 4
QUANTITY_NAME: Tmax (h)
Please respond with the number in h and leave the unit unwritten.

What value of Tmax has been recorded for this entry: N#Cc1cnc(Nc2cc(NCC3CNCCO3)c(C(F)(F)F)cn2)cn1 (stereo not shown)
1.8

* * *

Assay: Single dose PK, monkey
Assay type: in vivo
Details: in vivo; Monkey IV 1 mg/kg single dose
QUANTITY_NAME: AUC(0-t) (ng·h/mL)
Please respond with the number in ng·h/mL and leave the unit unwritten.

What value of AUC(0-t) has been recorded for this entry: N#Cc1cnc(Nc2cc(NCC3CNCCO3)c(C(F)(F)F)cn2)cn1 (stereo not shown)
1520

* * *

Assay: GLP 28-day repeat oral dose toxicity and toxicokinetics, monkey
Format: in vivo
Conditions: in vivo; monkey; 28-day repeat oral dose; highest dose tested
Excerpt: Reference source not found.6.
QUANTITY_NAME: NOAEL at 28 days (mg/kg/day)
Please respond with the number in mg/kg/day and leave the unit unwritten.

What value of NOAEL at 28 days has been recorded for this entry: N#Cc1cnc(Nc2cc(NCC3CNCCO3)c(C(F)(F)F)cn2)cn1 (stereo not shown) [SRA737]
20

* * *

Assay: GLP 28-day repeat oral dose toxicity and toxicokinetics, monkey
Type: in vivo
Details: in vivo, po; Monkey Male; 20 mg/kg/day (NOAEL), daily dosing for 28 days
QUANTITY_NAME: half-life (h)
Please respond with the number in h and leave the unit unwritten.

What value of half-life has been recorded for this entry: N#Cc1cnc(Nc2cc(NCC3CNCCO3)c(C(F)(F)F)cn2)cn1 (stereo not shown) [SRA737]
6.84

* * *

Assay: Plasma protein binding, ultracentrifugation, human
Assay type: in vitro ADME
Conditions: human, plasma; humans; summary of 1 and 10 μM
QUANTITY_NAME: fraction unbound

What value of fraction unbound has been recorded for this entry: N#Cc1cnc(Nc2cc(NCC3CNCCO3)c(C(F)(F)F)cn2)cn1 (stereo not shown) [SRA737]
~0.13

* * *

Experiment: Single dose PK, dog
Type: in vivo
Settings: in vivo; Dog oral 5 mg/kg single dose
Method: The PK of SRA737 have been determined in the mouse, rat, dog and monkey following oral and IV administration (Table 3). […] An acceptable terminal elimination t1/2 was also observed in each species. […] The plasma protein binding of SRA737 at 1 and 10 μM was examined in mouse, minipig, monkey and human plasma using ultracentrifugation and in dog plasma (10 μM) using rapid equilibrium dialysis.
QUANTITY_NAME: half-life (h)
Please respond with the number in h and leave the unit unwritten.

What value of half-life has been recorded for this entry: N#Cc1cnc(Nc2cc(NCC3CNCCO3)c(C(F)(F)F)cn2)cn1 (stereo not shown)
3.5

* * *

Experiment: Phase 1 clinical trial, SRA737 in combination with gemcitabine dose escalation
Assay type: in vivo, human
Conditions: human, plasma, oral, 500 mg; Day 10; mean, n = 19-22; read-out: AUC0-12
QUANTITY_NAME: AUC(0-t) (ng·h/mL)
Please respond with the number in ng·h/mL and leave the unit unwritten.

What value of AUC(0-t) has been recorded for this entry: N#Cc1cnc(Nc2cc(NCC3CNCCO3)c(C(F)(F)F)cn2)cn1 (stereo not shown)
10200

* * *

Experiment: Phase 1 clinical trial, SRA737 in combination with gemcitabine dose escalation
Assay type: in vivo, human
Conditions: human, plasma, oral, 600 mg; Day 10; mean, n = 4
QUANTITY_NAME: Tmax (h)
Please respond with the number in h and leave the unit unwritten.

What value of Tmax has been recorded for this entry: N#Cc1cnc(Nc2cc(NCC3CNCCO3)c(C(F)(F)F)cn2)cn1 (stereo not shown) [SRA737]
2.5

* * *

Assay: GLP 28-day repeat oral dose toxicity and toxicokinetics, monkey
Assay type: in vivo
Settings: in vivo, po; Monkey Male; 10 mg/kg/day, daily dosing for 28 days
QUANTITY_NAME: AUC(0-t) (ng·h/mL)
Please respond with the number in ng·h/mL and leave the unit unwritten.

What value of AUC(0-t) has been recorded for this entry: N#Cc1cnc(Nc2cc(NCC3CNCCO3)c(C(F)(F)F)cn2)cn1 (stereo not shown)
17900

* * *

Assay: Phase 1 clinical trial, SRA737 in combination with gemcitabine dose escalation
Assay type: in vivo, human
Settings: human, plasma, oral, 80 mg; Day −7; mean, n = 3; read-out: AUC0-24
QUANTITY_NAME: AUC(0-t) (ng·h/mL)
Please respond with the number in ng·h/mL and leave the unit unwritten.

What value of AUC(0-t) has been recorded for this entry: N#Cc1cnc(Nc2cc(NCC3CNCCO3)c(C(F)(F)F)cn2)cn1 (stereo not shown) [SRA737]
825

* * *

Assay: Plasma protein binding, ultracentrifugation, mouse
Type: in vitro ADME
Details: mouse, plasma; summary of 1 and 10 μM
QUANTITY_NAME: fraction unbound

What value of fraction unbound has been recorded for this entry: N#Cc1cnc(Nc2cc(NCC3CNCCO3)c(C(F)(F)F)cn2)cn1 (stereo not shown)
0.06

* * *

Experiment: Phase 1 clinical trial, SRA737 monotherapy dose escalation
Assay type: in vivo, human
Details: human, in vivo, 800 mg, Cmax
QUANTITY_NAME: Cmax (ng/mL)
Please respond with the number in ng/mL and leave the unit unwritten.

What value of Cmax has been recorded for this entry: N#Cc1cnc(Nc2cc(NCC3CNCCO3)c(C(F)(F)F)cn2)cn1 (stereo not shown)
1980

* * *

Assay: Phase 1 clinical trial, SRA737 in combination with gemcitabine dose escalation
Assay type: in vivo, human
Conditions: human, plasma, oral, 300 mg; Day 10; mean, n = 7; read-out: AUC0-12
QUANTITY_NAME: AUC(0-t) (ng·h/mL)
Please respond with the number in ng·h/mL and leave the unit unwritten.

What value of AUC(0-t) has been recorded for this entry: N#Cc1cnc(Nc2cc(NCC3CNCCO3)c(C(F)(F)F)cn2)cn1 (stereo not shown)
5140

* * *

Assay: Single dose PK, monkey
Format: in vivo
Settings: in vivo; Monkey oral 10 mg/kg single dose
QUANTITY_NAME: AUC(0-t) (ng·h/mL)
Please respond with the number in ng·h/mL and leave the unit unwritten.

What value of AUC(0-t) has been recorded for this entry: N#Cc1cnc(Nc2cc(NCC3CNCCO3)c(C(F)(F)F)cn2)cn1 (stereo not shown)
15800

* * *

Assay: Phase 1 clinical trial, SRA737 in combination with gemcitabine dose escalation
Format: in vivo, human
Details: human, plasma, oral, 500 mg; Day −7; mean, n = 29
QUANTITY_NAME: Tmax
Express the reported value numerically, then name its unit.

What value of Tmax has been recorded for this entry: N#Cc1cnc(Nc2cc(NCC3CNCCO3)c(C(F)(F)F)cn2)cn1 (stereo not shown)
2.4 h

* * *

Experiment: Phase 1 clinical trial, SRA737 in combination with gemcitabine dose escalation
Type: in vivo, human
Conditions: human, plasma, oral, 40 mg; Day −7; mean, n = 6
QUANTITY_NAME: Tmax (h)
Please respond with the number in h and leave the unit unwritten.

What value of Tmax has been recorded for this entry: N#Cc1cnc(Nc2cc(NCC3CNCCO3)c(C(F)(F)F)cn2)cn1 (stereo not shown)
2

* * *

Assay: Phase 1 clinical trial, SRA737 in combination with gemcitabine dose escalation
Format: in vivo, human
Conditions: human, plasma, oral, 600 mg; Day 10; mean, n = 4; read-out: AUC0-12
QUANTITY_NAME: AUC(0-t)
Express the reported value numerically, then name its unit.

What value of AUC(0-t) has been recorded for this entry: N#Cc1cnc(Nc2cc(NCC3CNCCO3)c(C(F)(F)F)cn2)cn1 (stereo not shown)
11900 ng·h/mL

* * *

Target: UniProt:P10635
Sequence (P10635 whole entry): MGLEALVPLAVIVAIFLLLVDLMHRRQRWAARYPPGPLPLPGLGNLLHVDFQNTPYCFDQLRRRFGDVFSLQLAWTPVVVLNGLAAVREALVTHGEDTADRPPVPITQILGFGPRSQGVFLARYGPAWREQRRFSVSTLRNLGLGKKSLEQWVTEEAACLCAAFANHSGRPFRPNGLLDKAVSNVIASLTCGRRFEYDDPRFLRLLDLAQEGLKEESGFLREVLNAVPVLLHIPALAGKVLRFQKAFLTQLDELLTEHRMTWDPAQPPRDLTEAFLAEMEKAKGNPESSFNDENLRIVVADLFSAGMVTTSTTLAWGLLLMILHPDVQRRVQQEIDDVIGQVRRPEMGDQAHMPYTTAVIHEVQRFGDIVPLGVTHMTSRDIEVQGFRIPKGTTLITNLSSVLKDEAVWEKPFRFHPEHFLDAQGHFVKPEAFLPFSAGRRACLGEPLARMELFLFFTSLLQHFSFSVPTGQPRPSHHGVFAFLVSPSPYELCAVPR
Assay: CYP inhibition, 2D6
Assay type: in vitro ADME
Settings: highest concentration investigated
QUANTITY_NAME: IC50

What value of IC50 has been recorded for this entry: N#Cc1cnc(Nc2cc(NCC3CNCCO3)c(C(F)(F)F)cn2)cn1 (stereo not shown)
10 to 50 µM
